# experiment_description: Tissue distribution after single IP or PO dose
# Type: in vivo, BALB/c mice
# test_conditions: female, BALB/c, mouse, kidneys, ip, 10 mg/kg
assay_endpoint: Vd/F (L)

{"smiles_repr": "CCn1c2ccccc2c2cc(-n3nncc3-c3ccccc3)ccc21", "observed_value": 0.023}

---

# experiment_description: Tissue distribution after single IP or PO dose
# Type: in vivo, BALB/c mice
# test_conditions: female, BALB/c, mouse, kidneys, po, 10 mg/kg
assay_endpoint: half-life (h)

{"smiles_repr": "CCn1c2ccccc2c2cc(-n3nncc3-c3ccccc3)ccc21", "observed_value": 3.4}

---

# experiment_description: Tissue distribution after single IP or PO dose
# Type: in vivo, BALB/c mice
# test_conditions: female, BALB/c, mouse, spleen, po, 10 mg/kg

{"smiles_repr": "CCn1c2ccccc2c2cc(-n3nncc3-c3ccccc3)ccc21", "k el / s⁻¹": "2.22e-05"}

---

# experiment_description: Tissue distribution after single IP or PO dose
# Type: in vivo, BALB/c mice
# test_conditions: female, BALB/c, mouse, heart, ip, 10 mg/kg
assay_endpoint: k el (s⁻¹)

{"smiles_repr": "CCn1c2ccccc2c2cc(-n3nncc3-c3ccccc3)ccc21", "observed_value": 0.000206}

---

# experiment_description: Tissue distribution after single IP or PO dose
# Type: in vivo, BALB/c mice
# test_conditions: female, BALB/c, mouse, liver, ip, 10 mg/kg
assay_endpoint: MRT inf

{"smiles_repr": "CCn1c2ccccc2c2cc(-n3nncc3-c3ccccc3)ccc21", "assay_endpoint": "MRT inf", "observed_value": "3.56 h"}
